Exercise: for every item that follows, state its recorded binding affinity ratio (IC50 of standard peptide / IC50 of test peptide).
molecular target: HLA-A*0301 (human); assay: competition with 125I-labeled standard peptide on purified HLA, gel filtration
Quick one: just the number, no unit, thanks!

Asked: State the recorded binding affinity ratio (IC50 of standard peptide / IC50 of test peptide) for this entry: WLLSPRGSR (modifications not checked) [HCV peptide … (HCV polyprotein position 96)]
Given back: 0.0008

Asked: Same read-out for YVPESDAAAR (modifications not checked) [HCV peptide … (HCV polyprotein position 1939)] ?
Given back: 0.0003

Asked: VAYQATVCAR (modifications not checked) [HCV peptide … (HCV polyprotein position 1592)] , same question.
Given back: 0.0005

Asked: Now the same for TSERSQPRGR (modifications not checked) [HCV peptide … (HCV polyprotein position 52)]
Given back: 0.0003
